# assayed system: Histone acetyltransferase p300 (Homo sapiens, UniProt Q09472)
# Sequence (Q09472 whole entry, the tested form may be a part): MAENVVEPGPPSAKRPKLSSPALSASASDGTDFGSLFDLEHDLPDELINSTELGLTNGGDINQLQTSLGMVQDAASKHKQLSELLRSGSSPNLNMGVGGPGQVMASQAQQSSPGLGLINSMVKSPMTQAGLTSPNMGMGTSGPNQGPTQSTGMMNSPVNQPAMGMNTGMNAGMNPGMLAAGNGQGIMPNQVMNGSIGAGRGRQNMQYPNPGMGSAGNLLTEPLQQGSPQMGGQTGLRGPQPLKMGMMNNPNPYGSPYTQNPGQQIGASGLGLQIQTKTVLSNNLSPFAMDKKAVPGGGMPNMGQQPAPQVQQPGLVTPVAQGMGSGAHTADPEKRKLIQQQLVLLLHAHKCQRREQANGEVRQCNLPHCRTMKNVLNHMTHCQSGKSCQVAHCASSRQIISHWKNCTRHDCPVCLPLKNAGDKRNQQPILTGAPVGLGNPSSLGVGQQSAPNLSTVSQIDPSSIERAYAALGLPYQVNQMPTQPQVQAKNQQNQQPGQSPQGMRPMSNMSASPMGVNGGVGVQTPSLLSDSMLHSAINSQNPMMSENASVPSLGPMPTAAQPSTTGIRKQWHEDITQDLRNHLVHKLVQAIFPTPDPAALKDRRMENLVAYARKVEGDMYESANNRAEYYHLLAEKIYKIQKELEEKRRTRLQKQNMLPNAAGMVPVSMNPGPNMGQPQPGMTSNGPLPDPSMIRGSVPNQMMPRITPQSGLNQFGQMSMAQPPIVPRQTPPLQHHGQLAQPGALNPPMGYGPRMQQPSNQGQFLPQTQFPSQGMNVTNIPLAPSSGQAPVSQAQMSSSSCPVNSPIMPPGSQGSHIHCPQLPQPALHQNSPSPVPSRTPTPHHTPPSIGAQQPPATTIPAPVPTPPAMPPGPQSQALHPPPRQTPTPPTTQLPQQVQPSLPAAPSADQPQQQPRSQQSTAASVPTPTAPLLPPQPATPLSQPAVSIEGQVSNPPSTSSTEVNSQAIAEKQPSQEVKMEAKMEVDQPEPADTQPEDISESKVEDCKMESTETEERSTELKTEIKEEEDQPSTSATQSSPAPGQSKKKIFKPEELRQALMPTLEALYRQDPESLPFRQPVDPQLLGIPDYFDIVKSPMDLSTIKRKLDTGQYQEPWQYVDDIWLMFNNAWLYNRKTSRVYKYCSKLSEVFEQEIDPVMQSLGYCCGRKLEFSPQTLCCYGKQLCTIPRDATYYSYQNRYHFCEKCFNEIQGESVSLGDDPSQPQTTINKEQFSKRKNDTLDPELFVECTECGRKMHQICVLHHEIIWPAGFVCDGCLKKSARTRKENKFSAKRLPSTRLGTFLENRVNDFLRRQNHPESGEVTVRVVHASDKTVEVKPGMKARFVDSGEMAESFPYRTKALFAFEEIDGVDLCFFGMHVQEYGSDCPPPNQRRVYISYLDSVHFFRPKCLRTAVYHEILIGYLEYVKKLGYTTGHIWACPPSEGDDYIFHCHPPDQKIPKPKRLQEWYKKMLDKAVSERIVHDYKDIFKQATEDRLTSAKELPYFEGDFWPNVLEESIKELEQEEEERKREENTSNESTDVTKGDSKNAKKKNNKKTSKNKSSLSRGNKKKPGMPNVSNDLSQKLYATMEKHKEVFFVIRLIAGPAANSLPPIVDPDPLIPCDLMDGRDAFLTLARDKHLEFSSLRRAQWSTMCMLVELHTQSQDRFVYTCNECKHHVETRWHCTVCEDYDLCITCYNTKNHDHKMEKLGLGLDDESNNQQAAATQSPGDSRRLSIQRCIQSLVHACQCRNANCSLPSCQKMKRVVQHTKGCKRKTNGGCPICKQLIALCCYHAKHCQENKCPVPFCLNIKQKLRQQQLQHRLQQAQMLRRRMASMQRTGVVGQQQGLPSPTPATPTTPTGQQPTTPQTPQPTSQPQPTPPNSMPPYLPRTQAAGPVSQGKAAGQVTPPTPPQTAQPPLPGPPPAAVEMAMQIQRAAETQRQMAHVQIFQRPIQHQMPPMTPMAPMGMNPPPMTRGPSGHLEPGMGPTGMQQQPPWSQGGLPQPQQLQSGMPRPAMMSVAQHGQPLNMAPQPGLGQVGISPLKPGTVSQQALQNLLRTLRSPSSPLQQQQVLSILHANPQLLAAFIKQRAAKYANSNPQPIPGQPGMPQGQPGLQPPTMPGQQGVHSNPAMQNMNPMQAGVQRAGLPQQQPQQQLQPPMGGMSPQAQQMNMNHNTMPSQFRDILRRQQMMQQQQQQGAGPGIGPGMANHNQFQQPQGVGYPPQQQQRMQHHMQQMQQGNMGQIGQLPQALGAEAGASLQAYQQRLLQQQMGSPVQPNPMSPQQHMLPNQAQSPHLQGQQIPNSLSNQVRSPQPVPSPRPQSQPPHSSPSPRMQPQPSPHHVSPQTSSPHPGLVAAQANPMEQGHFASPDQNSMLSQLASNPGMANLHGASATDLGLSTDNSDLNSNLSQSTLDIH
# experiment notes: Inhibition of N-terminal His tagged human EP300 (1159-1666 residues) expressed in Escherichia coli BL21 (DE3) using biotinylated H4 (1 to 25)-GSGSK peptide as substrate incubated for 1 hr by AlphaLISA assay
readout type: IC50 (nM)

- COc1ccc(C2(C(=O)N3CS(=O)(=O)C[C@@H]3C(=O)Nc3cccc4[nH]ncc34)CCCC2)cc1: 150
- COc1ccc(C2(C(=O)N3C[C@@H](O)C[C@@H]3C(=O)Nc3cccc4[nH]ncc34)CCCC2)cc1: 910
- COc1ccc(C2(C(=O)N3CCOCC(Cc4cccc5[nH]ncc45)C3)CCCC2)cc1 (single isomer, unassigned; (+)): 50
- COc1ccc(C2(C(=O)N(C)[C@H](C)C(=O)Nc3cccc4[nH]ncc34)CCCC2)cc1: 220
- COc1ccc(C2(C(=O)N3C[C@H](F)C[C@@H]3C(=O)Nc3cccc4[nH]ncc34)CCCC2)cc1: 56
- COc1ccc(C2(C(=O)N3CCOCC(Cc4cccc5[nH]ncc45)C3)CCCC2)cc1 (stereo in doubt; 3): 130
- COc1ccc(C2(C(=O)N3CCOCC(Cc4cccc5[nH]ncc45)C3)CCCCC2)cc1 (stereo unspecified): 140
- COc1ccc(C2(C(=O)N3CCC[C@@H]3C(=O)Nc3cccc4[nH]ncc34)CCCC2)cc1: 180
- COc1ccc(C2(C(=O)N(C)CC(=O)Nc3cccc4[nH]ncc34)CCCCC2)cc1: 190

1. COc1ccc(C2(C(=O)N3CCC[C@@H]3C(=O)Nc3cccc4[nH]ncc34)CCCCC2)cc1
2. COc1ccc(C2(C(=O)N3CCOCC(Cc4cccc5[nH]ncc45)C3)CCOCC2)cc1 (stereo unspecified)
Determine, for 1 and 2 , which has the greater value of IC50. Select an item and report its label.
2

* * *

# assayed system: Histone acetyltransferase p300 (Homo sapiens)
# experiment notes: Inhibition of EP300 in human LK2 cells assessed as reduction in intracellular histone H3 acetylation at lysine 27 residue incubated for 3 hrs by chemiluminescence based ELISA
# Format: cell-based
pIC50: −log10 of the molar value.
readout type: pIC50

These recorded examples may help you get a feel for the data.
* COc1ccc(C2(C(=O)N3CCC[C@@H]3C(=O)Nc3cccc4[nH]ncc34)CCCCC2)cc1 | 6.38
* COc1ccc(C2(C(=O)N3C[C@H](F)C[C@@H]3C(=O)Nc3cccc4[nH]ncc34)CCCC2)cc1 | 6.34

P. COc1ccc(C2(C(=O)N3CS(=O)(=O)C[C@@H]3C(=O)Nc3cccc4[nH]ncc34)CCCC2)cc1
Q. COc1ccc(C2(C(=O)N3CCOCC(Cc4cccc5[nH]ncc45)C3)CCOCC2)cc1 (centres undefined)
Determine, for P and Q , which has the greater value of pIC50. Select an item and report its label.
P

* * *

# assayed system: UniProtKB O95251
# Sequence (O95251 whole entry): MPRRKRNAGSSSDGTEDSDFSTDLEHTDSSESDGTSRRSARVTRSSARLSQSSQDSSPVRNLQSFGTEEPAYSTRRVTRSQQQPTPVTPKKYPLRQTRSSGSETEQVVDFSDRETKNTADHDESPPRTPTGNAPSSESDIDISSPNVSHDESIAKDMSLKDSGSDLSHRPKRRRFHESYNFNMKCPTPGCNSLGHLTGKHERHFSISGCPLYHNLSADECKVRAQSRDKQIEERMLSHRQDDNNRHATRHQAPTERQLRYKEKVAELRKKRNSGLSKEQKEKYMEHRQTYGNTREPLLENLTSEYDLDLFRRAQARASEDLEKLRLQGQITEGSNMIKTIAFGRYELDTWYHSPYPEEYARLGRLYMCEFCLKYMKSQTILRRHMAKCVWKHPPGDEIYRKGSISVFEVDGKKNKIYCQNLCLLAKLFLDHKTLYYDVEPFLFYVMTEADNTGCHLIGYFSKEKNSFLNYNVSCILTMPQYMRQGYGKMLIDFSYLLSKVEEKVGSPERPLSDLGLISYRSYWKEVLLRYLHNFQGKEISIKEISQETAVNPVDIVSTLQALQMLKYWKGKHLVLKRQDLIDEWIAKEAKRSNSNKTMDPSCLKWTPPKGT
readout type: pIC50
The read-out pIC50 is expressed as -log10 of concentration in moles per litre.

Look at this compound and give its reported pIC50. CC1=NN(c2ccc(C(=O)O)cc2)C(=O)/C1=C\c1ccc(-c2cc(C)c(C)cc2[N+](=O)[O-])o1
5.11

* * *

# assayed system: Histone acetyltransferase p300 (Homo sapiens, UniProt Q09472)
# experiment notes: Inhibition of EP300 in human LK2 cells assessed as reduction in intracellular histone H3 acetylation at lysine 27 residue incubated for 3 hrs by chemiluminescence based ELISA
# Type: cell-based
readout type: IC50 (µM)

* COc1ccc(C2(C(=O)N3C[C@H](O)C[C@@H]3C(=O)Nc3cccc4[nH]ncc34)CCCC2)cc1 | 1.03

P. COc1ccc(C2(C(=O)N3C[C@@H](O)C[C@@H]3C(=O)Nc3cccc4[nH]ncc34)CCCC2)cc1
Q. COc1ccc(C2(C(=O)N(C)[C@H](C)C(=O)Nc3cccc4[nH]ncc34)CCCC2)cc1
R. COc1ccc(C2(C(=O)N3CCOCC(Cc4cccc5[nH]ncc45)C3)CCCC2)cc1 (stereo in doubt; 3)
Order the items by recorded IC50; the first position goes to the largest value. List the labels, following the order given in the request.
Q, P, R
(Q: 5.02 µM, P: 1.45 µM, R: 0.38 µM)

* * *

# experiment notes: Metabolic stability in mouse liver microsomes assessed as parent compound remaining measured after 0.5 hr
# Type: ADME, Microsome
# experimental setup: read-out: Stability
readout type: remaining at 0.5 h (%)

P. COc1ccc(C2(C(=O)N3CCC[C@@H]3C(=O)Nc3cccc4[nH]ncc34)CCCC2)cc1
Q. COc1ccc(C2(C(=O)N3C[C@@H](O)C[C@@H]3C(=O)Nc3cccc4[nH]ncc34)CCCC2)cc1
R. COc1ccc(C2(C(=O)N3CS(=O)(=O)C[C@@H]3C(=O)Nc3cccc4[nH]ncc34)CCCC2)cc1
Sort the entries above numerically by remaining at 0.5 h, high end first. List the labels, following the order given in the request.
Q, R, P

P. COc1ccc(C2(C(=O)N3C[C@H](O)C[C@@H]3C(=O)Nc3cccc4[nH]ncc34)CCCC2)cc1
Q. COc1ccc(C2(C(=O)N3C[C@H](F)C[C@@H]3C(=O)Nc3cccc4[nH]ncc34)CCCC2)cc1
Please indicate which has the smaller reported remaining at 0.5 h: P , or Q . Select an item and report its label.
Q
(Q: 5%, P: 47%)

* * *

# experiment notes: Lipophilicity, logD of compound
# Type: physicochemical
# experimental setup: octanol/water
readout type: logD
Give a plain numeric answer without units written out.

Look at this molecule and give its reported logD. COc1ccc(C2(C(=O)N3CS(=O)(=O)C[C@@H]3C(=O)Nc3cccc4[nH]ncc34)CCCC2)cc1
3.2
